Reported switch fluorescence ratio values for a set of sequences
Test system: ATP;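 further: ATP exposure 15 min at 22 °C before imaging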
assay explanation: switch fluorescence ratio, 500 uM ATP over buffer (Cy3 cluster intensity, sum of 5 cycles each) (fold (ratio)); higher = stronger signal-on switching upon ATP binding; sequences stand for … in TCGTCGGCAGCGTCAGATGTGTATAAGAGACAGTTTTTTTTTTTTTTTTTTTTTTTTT…TC
measurement context: aptamer strand: ATP DNA aptamer (quencher-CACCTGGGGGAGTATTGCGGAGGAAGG + anchor), 100 nM annealed; ATP concentration: 500 uM
API note: the answer field is a bare number with no unit suffix.

Worked cases, switch fluorescence ratio given:
>>> value_observed("CTAGGTGTGG")
1.04
>>> value_observed("TTTGTTCATT")
0.953
>>> value_observed("GGTGTACGGA")
0.972
>>> value_observed("TTTTTCCAT")
1
>>> value_observed("TGCTGTATTC")
0.967

Looking for the measured switch fluorescence ratio of GACCTAGTGT , can you help?
1.03

Looking for the measured switch fluorescence ratio of ACCGGGGGGG , can you help?
1
